meta.source: PubChem BioAssay AID1159580

# EXPERIMENT DESCRIPTION: chemical genetic growth profiling, strain panel (AID 1159580);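 also: tested at 20 µM; growth read once vehicle control cultures reached saturation at 30 °C; 1 = growth at the plate median or of vehicle wells; lower values mean less growth of the strain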
# CONDITION PARAMETERS: S. cerevisiae deletion strains, growth OD, locus YNL067W, strain RPL9B, hits give low values
Among all 5,500 compounds or so, about 2,000 (36%) were called active. Inconclusive results (about 18%) are left out. The list shows a part of the results.
In plain terms, low normalized growth, meaning strictly below 1, gives class 1, and everything else gives class 0.

COMPOUND	DISCRETE LABEL
COc1ccc(-c2c(O)c3c(OC)c4c(cc3oc2=O)OC(C)(C)C=C4)cc1	class 1
CCCCCC/C=C\CCCCCCCc1cccc(O)c1C(=O)O	class 0
CC(C)[C@@H]1CC[C@@H](C)CC1=O	class 0
O=C(Nc1ccc([N+](=O)[O-])cc1Cl)c1cc(Cl)ccc1O	class 1
CN1CCCCC1c1ccc(-c2cccnc2)nc1 (centres undefined)	class 0
